Target: human SGLT2 (Homo sapiens, UniProt P31639)
Sequence (P31639 whole entry): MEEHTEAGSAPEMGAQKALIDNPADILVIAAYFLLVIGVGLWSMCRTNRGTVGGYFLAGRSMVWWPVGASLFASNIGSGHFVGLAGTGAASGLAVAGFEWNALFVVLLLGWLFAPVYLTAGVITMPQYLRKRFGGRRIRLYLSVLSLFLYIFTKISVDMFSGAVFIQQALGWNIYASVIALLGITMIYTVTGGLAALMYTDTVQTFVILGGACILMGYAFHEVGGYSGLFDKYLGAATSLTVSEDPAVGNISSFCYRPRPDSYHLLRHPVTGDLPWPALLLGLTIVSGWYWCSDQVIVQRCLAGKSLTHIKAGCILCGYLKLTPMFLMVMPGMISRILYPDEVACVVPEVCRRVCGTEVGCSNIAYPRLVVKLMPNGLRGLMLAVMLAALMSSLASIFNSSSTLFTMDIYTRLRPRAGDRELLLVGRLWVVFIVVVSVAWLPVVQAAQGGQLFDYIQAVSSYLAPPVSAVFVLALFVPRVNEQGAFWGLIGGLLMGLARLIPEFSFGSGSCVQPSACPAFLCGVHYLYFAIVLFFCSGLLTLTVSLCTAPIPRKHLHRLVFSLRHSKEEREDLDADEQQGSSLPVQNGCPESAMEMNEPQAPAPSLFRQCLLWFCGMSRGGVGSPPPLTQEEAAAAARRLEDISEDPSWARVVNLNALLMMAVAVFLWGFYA
Assay: SGLT2 assay: Na-dependent 14C-AMG uptake in CHO-K1 cells stably expressing human SGLT2
Conditions: average if tested more than once
pIC50: −log10 of the molar value.
attribute-measured: pIC50

{"compound": "COc1cc(O)c([C@@H]2O[C@H](CC#N)[C@@H](F)[C@H](O)[C@H]2O)cc1Cc1cc2ccccc2s1 [Compound 22]", "attribute-measured": "pIC50", "numeric-result": 6.62}
{"compound": "COc1cc(Cl)c([C@@H]2O[C@H](CC#N)[C@@H](F)[C@H](O)[C@H]2O)cc1Cc1cc2ccccc2s1 [Compound 26]", "attribute-measured": "pIC50", "numeric-result": 6.01}
{"compound": "COc1c(Cc2ccc3c(c2)SCCO3)cc([C@@H]2O[C@H](CO)[C@@H](F)[C@H](O)[C@H]2O)c2c1CCO2 [Compound 128]", "attribute-measured": "pIC50", "numeric-result": 7.21}
{"compound": "CCc1c(Cc2ccc3c(c2)OCCO3)cc([C@@H]2O[C@H](CO)[C@@H](F)[C@H](O)[C@H]2O)c2c1CCO2 [Compound 180]", "attribute-measured": "pIC50", "numeric-result": 7.60}
